- Target Entity: T1, human CD22 (d1 to d7 domain according to NP_001762.2) (human, UniProt P20273 20-687)
- T1 construct: domain: d1 to d7 domain; also called human CD22-gly; Siglec-2
- Experiment: SPR; mAb supernatant captured on protein A chip, human CD22 injected
Property: koff (s⁻¹)
Dear colleague, please return just the value in s⁻¹, with no unit written.

Solved cases (6 shown):
- Binder: "TNT73 (antibody, human IgG1, kappa, V domains shown) VH: EVQLVESGGGLVQPGGSLRLSCAASGFAFSIYDMSWVRQAPGKGLEWVAYISSGGGTTYYPDTVKGRFTISRDNSKNTLYLQMNSLRAEDTAVYYCARHSGYGTHWGVLFAYWGRGTLVTVSS VL: DIQMTQSPSSVSASVGDRVTITCRASQDIHGYLAWYQQKPGKAPKLLIYYTSSLQSGVPSRFSGSGSGTDFTLTISSLQPEDFATYYCQQGNTLPWTFGQGTKLEIKR"
  Property: "koff"
  Quantitative Readout: 0.0023
- Binder: "TNT88 (antibody, human IgG1, kappa, V domains shown) VH: QVQLQESGPGLVKPSDTLSLTCTVSGFAFSIYDMSWIRQPPGKGLEWIAYISSGGGTTYYNPSLKSRVTISVDTSKNQFSLKLSSVTAADTAVYYCARHSGYGTHWGVLFAYWGRGTLVTVSS VL: DIVMTQTPLSLSVTPGQPASISCRASQDIHGYLNWYQQKPGQSPQLLIYYTSILHSGVPDRFSGSGSGTDFTLKISRVEAEDVGVYFCQQGNTLPWTFGGGTKLEIKR"
  Property: "koff"
  Quantitative Readout: 0.000289
- Binder: "TNT78 (antibody, human IgG1, kappa, V domains shown) VH: QVQLLESGGGVVQPGGSLRLSCAASGFAFSIYDMNWVRQAPGKGLEWVSAISSGGGTTYYADSVKGRFTISRDNAKNSLYLQMNSLRAEDTAVYYCARHSGYGTHWGVLFAYWGRGTLVTVSS VL: DIQMTQSPSSLSASVGDRVTITCRASQSISSYLNWYQQKPGKAPKLLIYAASSLQSGVPSRFSGSGSGTDFTLTISSLQPEDFATYYCQQGNTLPWTFGQGTKLEIKR"
  Property: "koff"
  Quantitative Readout: 0.00485
- Binder: "TNT85 (antibody, human IgG1, kappa, V domains shown) VH: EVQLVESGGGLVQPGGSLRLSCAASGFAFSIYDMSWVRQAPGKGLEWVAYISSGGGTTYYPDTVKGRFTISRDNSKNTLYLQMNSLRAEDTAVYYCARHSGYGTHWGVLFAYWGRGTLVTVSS VL: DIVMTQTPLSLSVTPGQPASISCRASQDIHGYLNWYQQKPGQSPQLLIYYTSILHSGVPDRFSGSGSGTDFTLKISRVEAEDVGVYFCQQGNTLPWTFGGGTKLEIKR"
  Property: "koff"
  Quantitative Readout: 0.000169
- Binder: "TNT86 (antibody, human IgG1, kappa, V domains shown) VH: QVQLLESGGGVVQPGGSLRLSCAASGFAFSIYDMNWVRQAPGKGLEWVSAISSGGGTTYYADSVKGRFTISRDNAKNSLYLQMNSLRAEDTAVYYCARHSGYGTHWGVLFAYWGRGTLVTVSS VL: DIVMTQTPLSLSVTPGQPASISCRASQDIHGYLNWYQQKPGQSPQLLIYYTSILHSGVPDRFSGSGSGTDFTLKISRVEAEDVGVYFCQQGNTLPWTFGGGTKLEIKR"
  Property: "koff"
  Quantitative Readout: 0.000141
- Binder: "TNT69 (antibody, human IgG1, kappa, V domains shown) VH: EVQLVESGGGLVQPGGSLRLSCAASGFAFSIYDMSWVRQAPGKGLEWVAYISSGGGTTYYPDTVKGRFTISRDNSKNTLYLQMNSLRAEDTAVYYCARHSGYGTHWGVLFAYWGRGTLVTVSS VL: DIQMTQSPSSLSASVGDRVTITCRASQDIHGYLNWYQQKPGKAPKLLIYYTSILHSGVPSRFSGSGSGTDFTLTISSLQPEDFATYFCQQGNTLPWTFGQGTKLEIKR"
  Property: "koff"
  Quantitative Readout: 0.000126

API: the following record is the query input.
Requested read-out: koff. Entry: TNT82 (antibody, human IgG1, kappa, V domains shown) VH: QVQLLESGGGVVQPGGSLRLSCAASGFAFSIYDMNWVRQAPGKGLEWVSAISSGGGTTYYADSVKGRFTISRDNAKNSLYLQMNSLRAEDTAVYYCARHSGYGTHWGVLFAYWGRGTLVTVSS VL: EIVLTQSPATLSLSPGERATLSCRASQDIHGYLNWYQQKPGQAPRLLIYYTSILHSGIPARFSGSGPGTDFTLTISSLEPEDFAVYYCQQGNTLPWTFGGGTKLEIKR
0.000156
